Where these numbers come from: patent US20200170975A1

# TARGET: MATE2-K (Homo sapiens)
# EXPERIMENTAL SETUP: human, pH 8.5
OBSERVED PROPERTY: IC50

NS(=O)(=O)c1cc(Cl)c(Cl)c(S(N)(=O)=O)c1 [Dichlorphenamide, 4,5-dichloro-1,3-benzenedisulfonamide]: > 1000 µM

====

# TARGET: UniProt:Q96FL8
# Sequence (Q96FL8 whole entry): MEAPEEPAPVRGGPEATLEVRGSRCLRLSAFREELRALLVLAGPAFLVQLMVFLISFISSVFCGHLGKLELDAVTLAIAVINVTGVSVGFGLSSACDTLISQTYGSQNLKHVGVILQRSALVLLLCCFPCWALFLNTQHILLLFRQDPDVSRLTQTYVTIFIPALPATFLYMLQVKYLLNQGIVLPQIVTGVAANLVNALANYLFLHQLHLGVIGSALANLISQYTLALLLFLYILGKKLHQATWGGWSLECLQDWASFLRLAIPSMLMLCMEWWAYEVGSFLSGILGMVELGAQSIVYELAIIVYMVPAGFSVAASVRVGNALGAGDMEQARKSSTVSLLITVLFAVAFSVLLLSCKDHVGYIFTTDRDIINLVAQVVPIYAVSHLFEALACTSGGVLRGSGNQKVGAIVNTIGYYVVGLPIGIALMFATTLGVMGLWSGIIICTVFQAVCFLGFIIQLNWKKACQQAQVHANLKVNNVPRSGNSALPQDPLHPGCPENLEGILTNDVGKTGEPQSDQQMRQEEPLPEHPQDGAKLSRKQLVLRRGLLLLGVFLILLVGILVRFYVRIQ
pIC50: −log10 of the molar value.
OBSERVED PROPERTY: pIC50

NS(=O)(=O)c1cc(Cl)c(Cl)c(S(N)(=O)=O)c1 [Dichlorphenamide, 4,5-dichloro-1,3-benzenedisulfonamide]: < 3.00

====

# TARGET: MATE2-K (Homo sapiens, UniProt Q86VL8)
# Sequence (Q86VL8 1-566 isoform Q86VL8-3): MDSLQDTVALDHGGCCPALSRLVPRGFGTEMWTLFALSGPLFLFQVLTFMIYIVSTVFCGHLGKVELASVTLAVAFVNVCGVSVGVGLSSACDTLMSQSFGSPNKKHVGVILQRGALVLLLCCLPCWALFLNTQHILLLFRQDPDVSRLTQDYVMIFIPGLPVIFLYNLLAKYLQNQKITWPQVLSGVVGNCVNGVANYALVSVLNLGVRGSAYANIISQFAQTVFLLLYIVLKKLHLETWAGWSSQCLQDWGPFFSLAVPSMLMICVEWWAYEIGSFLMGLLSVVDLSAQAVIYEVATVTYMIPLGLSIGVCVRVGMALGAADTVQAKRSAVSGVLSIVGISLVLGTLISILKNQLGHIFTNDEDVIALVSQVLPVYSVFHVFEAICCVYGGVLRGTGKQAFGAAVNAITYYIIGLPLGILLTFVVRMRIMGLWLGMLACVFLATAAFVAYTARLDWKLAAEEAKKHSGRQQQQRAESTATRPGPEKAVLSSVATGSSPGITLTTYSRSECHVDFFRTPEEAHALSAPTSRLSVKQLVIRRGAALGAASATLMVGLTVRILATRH
pIC50: −log10 of the molar value.
OBSERVED PROPERTY: pIC50

NS(=O)(=O)c1cc(Cl)c(Cl)c(S(N)(=O)=O)c1 [Dichlorphenamide, 4,5-dichloro-1,3-benzenedisulfonamide]: < 3.00

====

# TARGET: OAT2 (Homo sapiens)
# Sequence (Q9Y694 1-548): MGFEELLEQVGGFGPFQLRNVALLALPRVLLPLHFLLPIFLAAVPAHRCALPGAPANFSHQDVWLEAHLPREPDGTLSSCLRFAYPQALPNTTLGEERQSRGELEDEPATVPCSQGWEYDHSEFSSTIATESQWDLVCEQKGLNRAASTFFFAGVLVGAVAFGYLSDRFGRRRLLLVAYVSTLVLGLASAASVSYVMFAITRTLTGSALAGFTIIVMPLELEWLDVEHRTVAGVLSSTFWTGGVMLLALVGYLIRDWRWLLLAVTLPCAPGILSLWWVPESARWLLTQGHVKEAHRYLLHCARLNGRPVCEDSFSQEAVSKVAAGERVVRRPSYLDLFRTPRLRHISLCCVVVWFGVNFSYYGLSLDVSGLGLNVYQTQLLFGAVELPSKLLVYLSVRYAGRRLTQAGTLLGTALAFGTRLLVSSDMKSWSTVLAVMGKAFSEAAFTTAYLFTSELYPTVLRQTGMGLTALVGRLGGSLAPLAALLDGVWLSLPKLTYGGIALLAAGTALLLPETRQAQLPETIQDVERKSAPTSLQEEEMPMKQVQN
# ASSAY TEXT: OAT2 inhibition: accumulation of [3H]-PGE2 in S2 cells
OBSERVED PROPERTY: IC50

NS(=O)(=O)c1cc(Cl)c(Cl)c(S(N)(=O)=O)c1 [Dichlorphenamide, 4,5-dichloro-1,3-benzenedisulfonamide]: > 1000 µM

====

# TARGET: P-gp (Homo sapiens)
# Sequence (P08183 whole entry): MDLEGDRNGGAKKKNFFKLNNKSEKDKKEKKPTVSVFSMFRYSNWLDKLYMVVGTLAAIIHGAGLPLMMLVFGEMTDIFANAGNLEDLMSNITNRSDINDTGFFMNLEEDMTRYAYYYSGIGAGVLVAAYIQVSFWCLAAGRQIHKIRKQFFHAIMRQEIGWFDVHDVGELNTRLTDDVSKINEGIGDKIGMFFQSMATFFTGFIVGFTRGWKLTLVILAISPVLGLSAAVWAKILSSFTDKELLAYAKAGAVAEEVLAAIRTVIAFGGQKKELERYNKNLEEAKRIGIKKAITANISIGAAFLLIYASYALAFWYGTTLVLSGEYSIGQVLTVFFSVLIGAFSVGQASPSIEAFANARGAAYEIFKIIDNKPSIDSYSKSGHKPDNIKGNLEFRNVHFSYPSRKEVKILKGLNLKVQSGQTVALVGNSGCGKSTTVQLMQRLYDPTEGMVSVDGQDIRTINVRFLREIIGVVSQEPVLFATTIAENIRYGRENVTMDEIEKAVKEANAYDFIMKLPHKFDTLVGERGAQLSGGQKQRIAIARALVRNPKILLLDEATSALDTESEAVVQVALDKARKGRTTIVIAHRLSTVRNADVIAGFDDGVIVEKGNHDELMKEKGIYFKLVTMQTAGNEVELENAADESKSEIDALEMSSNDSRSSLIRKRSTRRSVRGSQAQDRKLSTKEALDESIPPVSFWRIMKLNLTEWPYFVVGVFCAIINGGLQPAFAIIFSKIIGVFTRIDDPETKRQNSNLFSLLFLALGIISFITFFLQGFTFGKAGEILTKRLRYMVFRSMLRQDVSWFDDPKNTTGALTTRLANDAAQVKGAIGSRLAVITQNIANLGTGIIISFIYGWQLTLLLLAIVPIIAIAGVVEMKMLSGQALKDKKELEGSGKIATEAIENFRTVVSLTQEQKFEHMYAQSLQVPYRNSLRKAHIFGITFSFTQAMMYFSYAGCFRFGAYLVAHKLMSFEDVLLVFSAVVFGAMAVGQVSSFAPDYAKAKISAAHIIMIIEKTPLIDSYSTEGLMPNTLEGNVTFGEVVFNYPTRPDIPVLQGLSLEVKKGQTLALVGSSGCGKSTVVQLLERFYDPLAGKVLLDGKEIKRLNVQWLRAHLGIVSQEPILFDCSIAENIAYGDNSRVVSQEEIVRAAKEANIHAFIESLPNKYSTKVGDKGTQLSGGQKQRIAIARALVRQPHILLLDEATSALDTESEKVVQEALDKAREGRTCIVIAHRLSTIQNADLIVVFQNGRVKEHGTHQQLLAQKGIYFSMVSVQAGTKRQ
OBSERVED PROPERTY: IC50

NS(=O)(=O)c1cc(Cl)c(Cl)c(S(N)(=O)=O)c1 [Dichlorphenamide, 4,5-dichloro-1,3-benzenedisulfonamide]: > 1000 µM

====

# TARGET: OCT1 (Homo sapiens)
# Sequence (O15245 whole entry): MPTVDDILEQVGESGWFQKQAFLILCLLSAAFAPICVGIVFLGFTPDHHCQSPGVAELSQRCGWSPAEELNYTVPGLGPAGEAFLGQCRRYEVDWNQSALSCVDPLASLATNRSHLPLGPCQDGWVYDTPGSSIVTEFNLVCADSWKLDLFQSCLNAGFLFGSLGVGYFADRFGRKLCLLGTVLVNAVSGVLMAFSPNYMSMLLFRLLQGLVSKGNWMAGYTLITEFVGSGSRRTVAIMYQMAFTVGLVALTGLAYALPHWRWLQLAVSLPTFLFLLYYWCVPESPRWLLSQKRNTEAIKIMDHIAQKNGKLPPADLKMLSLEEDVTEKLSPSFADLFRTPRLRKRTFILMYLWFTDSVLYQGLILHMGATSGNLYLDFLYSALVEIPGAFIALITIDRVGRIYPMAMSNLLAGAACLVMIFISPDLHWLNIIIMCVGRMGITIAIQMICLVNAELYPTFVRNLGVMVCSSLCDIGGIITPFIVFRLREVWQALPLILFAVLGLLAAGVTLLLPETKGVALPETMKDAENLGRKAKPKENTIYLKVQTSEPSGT
# EXPERIMENTAL SETUP: human, pH 7.4
pIC50: −log10 of the molar value.
OBSERVED PROPERTY: pIC50

NS(=O)(=O)c1cc(Cl)c(Cl)c(S(N)(=O)=O)c1 [Dichlorphenamide, 4,5-dichloro-1,3-benzenedisulfonamide]: < 3.00

====

# TARGET: OAT4 (Homo sapiens, UniProt Q9NSA0)
# Sequence (Q9NSA0 whole entry): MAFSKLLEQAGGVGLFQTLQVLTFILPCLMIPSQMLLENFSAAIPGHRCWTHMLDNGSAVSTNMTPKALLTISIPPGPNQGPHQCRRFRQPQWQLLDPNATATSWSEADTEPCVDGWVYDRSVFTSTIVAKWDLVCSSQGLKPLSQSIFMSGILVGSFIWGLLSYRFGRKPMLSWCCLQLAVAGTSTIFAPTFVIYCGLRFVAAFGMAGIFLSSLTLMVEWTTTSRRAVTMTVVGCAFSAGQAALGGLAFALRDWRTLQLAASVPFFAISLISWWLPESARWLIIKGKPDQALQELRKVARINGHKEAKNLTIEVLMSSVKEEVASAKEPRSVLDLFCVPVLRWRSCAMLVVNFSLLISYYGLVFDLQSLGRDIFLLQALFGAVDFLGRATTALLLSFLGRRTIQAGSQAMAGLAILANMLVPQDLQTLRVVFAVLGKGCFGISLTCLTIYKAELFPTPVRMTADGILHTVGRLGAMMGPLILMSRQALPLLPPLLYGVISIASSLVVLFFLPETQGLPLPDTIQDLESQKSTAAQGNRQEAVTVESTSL
# ASSAY TEXT: OAT4 inhibition: accumulation of [3H]-estrone-3-sulfate in S2 cells
pIC50: −log10 of the molar value.
OBSERVED PROPERTY: pIC50

NS(=O)(=O)c1cc(Cl)c(Cl)c(S(N)(=O)=O)c1 [Dichlorphenamide, 4,5-dichloro-1,3-benzenedisulfonamide]: < 3.00
